SYSTEM: EGFR Del19/T790M/C797S (Homo sapiens, UniProt P00533, C797S/DEL746-750/T790M)
Sequence (P00533 with tags, fused parts or gaps DEL746-750/T790M/C797S): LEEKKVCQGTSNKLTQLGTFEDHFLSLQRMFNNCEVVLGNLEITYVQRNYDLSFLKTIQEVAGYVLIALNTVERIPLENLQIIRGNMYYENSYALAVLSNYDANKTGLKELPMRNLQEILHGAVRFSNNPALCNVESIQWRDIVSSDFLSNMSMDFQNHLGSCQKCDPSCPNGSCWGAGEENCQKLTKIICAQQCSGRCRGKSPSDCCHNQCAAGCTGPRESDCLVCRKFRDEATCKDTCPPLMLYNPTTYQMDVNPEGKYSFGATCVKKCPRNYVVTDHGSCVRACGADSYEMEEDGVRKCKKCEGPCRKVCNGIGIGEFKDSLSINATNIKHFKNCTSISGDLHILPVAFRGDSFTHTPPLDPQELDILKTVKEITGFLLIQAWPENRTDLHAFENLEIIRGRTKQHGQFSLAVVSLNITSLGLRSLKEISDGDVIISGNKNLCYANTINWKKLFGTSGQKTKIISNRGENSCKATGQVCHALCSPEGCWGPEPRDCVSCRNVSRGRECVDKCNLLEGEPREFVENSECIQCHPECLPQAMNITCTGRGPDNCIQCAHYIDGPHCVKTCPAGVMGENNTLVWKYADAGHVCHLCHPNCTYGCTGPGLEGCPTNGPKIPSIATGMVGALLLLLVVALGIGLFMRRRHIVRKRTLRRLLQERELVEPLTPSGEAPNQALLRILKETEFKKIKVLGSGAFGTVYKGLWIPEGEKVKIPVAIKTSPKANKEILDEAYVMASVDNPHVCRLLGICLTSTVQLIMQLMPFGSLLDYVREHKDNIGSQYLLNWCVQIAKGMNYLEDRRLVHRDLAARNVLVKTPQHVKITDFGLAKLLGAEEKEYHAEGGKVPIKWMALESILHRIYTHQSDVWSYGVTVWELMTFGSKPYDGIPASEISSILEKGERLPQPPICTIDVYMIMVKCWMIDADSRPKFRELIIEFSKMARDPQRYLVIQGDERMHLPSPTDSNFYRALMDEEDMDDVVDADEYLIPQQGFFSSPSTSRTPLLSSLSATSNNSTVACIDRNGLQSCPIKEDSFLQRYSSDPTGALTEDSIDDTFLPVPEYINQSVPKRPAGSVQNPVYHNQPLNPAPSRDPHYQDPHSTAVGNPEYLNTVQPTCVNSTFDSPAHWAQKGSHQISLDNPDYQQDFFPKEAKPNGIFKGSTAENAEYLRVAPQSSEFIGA
PROCEDURE_SUMMARY: Biochemical EGFR kinase inhibition assay (Lance Ultra TR-FRET), triple mutant del19/T790M/C797S
RUN_PARAMETERS: Km ATP; read-out: IC50 Del19/T790M/C797S (nM), Km ATP
Listing of recorded log10(IC50) by entry.
Scale: log10; quantity: IC50; unit before log: nM

> print(dat)
                                   compound  numeric.result
1  CC1(O)CCN(c2cc(Nc3ccnc(-c4cnn(S(=O)(=O)C5CC5)c4)n3)ncc2C#CC2CCS(=O)(=O)C2)CC1 (stereo not shown) [Example 429]           -0.70

Exam item: Input CC1(O)CCN(c2cc(Nc3ccnc(-c4cnn(S(=O)(=O)C5CC5)c4)n3)ncc2C#CC2(F)CCOC2)CC1 (stereo not shown) [Example 435] , output reported log10(IC50).
Marked response: -0.70

Exam item: Input O=S(=O)(C1CC1)n1cc(-c2nccc(Nc3cc(NCC4CCC(O)CC4)c(C#CC4CCCO4)cn3)n2)cn1 (stereo not shown) [Example 375] , output reported log10(IC50).
Marked response: 0.40

Exam item: Input O=C(c1ccc(C#Cc2cnc(Nc3ccnc(-c4cnn(S(=O)(=O)C5CC5)c4)n3)cc2N2CCC[C@@H](O)C2)cc1)N1CCC(O)CC1 [Example 444] , output reported log10(IC50).
Marked response: -0.05

Exam item: Input CC1(CO)CCN(c2cc(Nc3ccnc(-c4cnn(S(=O)(=O)C5CC5)c4)n3)ncc2C#CC2CCN(S(C)(=O)=O)CC2)CC1 [Example 389] , output reported log10(IC50).
Marked response: -0.52

Exam item: Input CC1(CO)CCN(c2cc(Nc3ccnc(N4CCN(S(=O)(=O)C5CC5)CC4)n3)ncc2C#Cc2cnn(C(F)(F)F)c2)CC1 [Example 449] , output reported log10(IC50).
Marked response: 2.22

Exam item: Input O=C(c1ccc(C#Cc2cnc(Nc3ccnc(-c4cnn(S(=O)(=O)C5CC5)c4)n3)cc2N2CCC[C@H](O)C2)cc1)N1CCC(O)CC1 [Example 445] , output reported log10(IC50).
Marked response: -0.30

Exam item: Input CS(=O)(=O)N1CCC(C#Cc2cnc(Nc3ccnc(-c4cnn(S(=O)(=O)C5CC5)c4)n3)cc2N[C@H]2CC[C@@H](CO)CC2)CC1 [Example 387] , output reported log10(IC50).
Marked response: -0.52

Exam item: Input C[C@]1(O)CC[C@H](CNc2cc(Nc3ccnc(-c4cnn(S(=O)(=O)C5CC5)c4)n3)ncc2C#Cc2cnn(CCF)c2)CC1 [Example 380] , output reported log10(IC50).
Marked response: 0.38

Exam item: Input CC1(CO)CCN(c2cc(Nc3ccnc(-c4cnn(S(=O)(=O)C5CC5)c4)n3)ncc2C#CC2(O)CCOC2)CC1 (stereo not shown) [Example 355] , output reported log10(IC50).
Marked response: -0.70

Exam item: Input CC1(CO)CCN(c2cc(Nc3ccnc(-c4cnn(S(=O)(=O)C5CC5)c4)n3)ncc2C#CC2CCO[C@H]2C(F)(F)F)CC1 (stereo partly shown) [Example 421] , output reported log10(IC50).
Marked response: 0.18

Exam item: Input O=S(=O)(C1CC1)n1cc(-c2nccc(Nc3cc(NC4CCC(CO)CC4)c(C#CC4CCCO4)cn3)n2)cn1 (stereo not shown) [Example 374] , output reported log10(IC50).
Marked response: -0.52

---

SYSTEM: EGFR L858R/T790M/C797S (Homo sapiens, UniProt P00533, C797S/L858R/T790M)
Sequence (P00533 25-1210 T790M/C797S/L858R): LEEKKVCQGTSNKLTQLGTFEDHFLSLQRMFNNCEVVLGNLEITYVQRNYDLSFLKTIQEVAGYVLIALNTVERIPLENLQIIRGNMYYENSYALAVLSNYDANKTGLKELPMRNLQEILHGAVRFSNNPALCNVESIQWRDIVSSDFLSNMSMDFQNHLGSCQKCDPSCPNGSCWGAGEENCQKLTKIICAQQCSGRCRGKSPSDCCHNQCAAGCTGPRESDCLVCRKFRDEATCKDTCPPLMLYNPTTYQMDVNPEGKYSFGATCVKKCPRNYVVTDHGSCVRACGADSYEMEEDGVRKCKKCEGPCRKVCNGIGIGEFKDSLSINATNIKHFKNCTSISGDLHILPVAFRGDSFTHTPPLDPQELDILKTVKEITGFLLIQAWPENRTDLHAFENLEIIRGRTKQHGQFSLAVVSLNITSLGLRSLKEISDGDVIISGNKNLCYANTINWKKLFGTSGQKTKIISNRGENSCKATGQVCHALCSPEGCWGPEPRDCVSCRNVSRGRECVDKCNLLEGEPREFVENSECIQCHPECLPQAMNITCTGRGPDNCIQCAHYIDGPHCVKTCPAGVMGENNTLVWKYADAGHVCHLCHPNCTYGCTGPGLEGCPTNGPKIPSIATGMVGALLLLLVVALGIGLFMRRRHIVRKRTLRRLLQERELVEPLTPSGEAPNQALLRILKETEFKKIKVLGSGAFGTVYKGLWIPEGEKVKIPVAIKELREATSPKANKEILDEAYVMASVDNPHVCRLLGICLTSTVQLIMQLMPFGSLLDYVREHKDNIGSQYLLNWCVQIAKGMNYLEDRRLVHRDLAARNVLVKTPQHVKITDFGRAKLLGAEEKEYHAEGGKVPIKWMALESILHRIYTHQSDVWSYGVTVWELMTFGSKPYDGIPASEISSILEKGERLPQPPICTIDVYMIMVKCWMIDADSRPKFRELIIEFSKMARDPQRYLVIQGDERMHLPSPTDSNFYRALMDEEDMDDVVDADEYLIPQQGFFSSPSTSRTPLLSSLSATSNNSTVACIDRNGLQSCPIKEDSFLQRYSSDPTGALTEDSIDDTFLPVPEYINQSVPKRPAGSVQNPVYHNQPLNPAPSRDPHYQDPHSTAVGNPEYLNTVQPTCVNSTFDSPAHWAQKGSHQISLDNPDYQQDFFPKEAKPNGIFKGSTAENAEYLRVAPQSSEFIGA
PROCEDURE_SUMMARY: Biochemical EGFR kinase inhibition assay (Lance Ultra TR-FRET), triple mutant L858R/T790M/C797S
RUN_PARAMETERS: IC50 L858R/T790M/C797S (nM), 100 μM ATP
Listing of recorded IC50 by entry.
Give the quantity in nM, number only.

The examples below pair each entry with its known result.
> print(dat)
                                   compound  unit.of.measurement  numeric.result
1  C[C@H](CCO)Nc1cc(Nc2ccnc(-c3cnn(S(=O)(=O)C4CC4)c3)n2)ncc1C#Cc1cnn(C)c1 [Example 4]                   nM            12.6
2  O=S(=O)(C1CC1)n1cc(-c2nccc(Nc3cc(N[C@H]4CC[C@@H](O)CC4)c(C#CC4(O)CCCCC4)cn3)n2)cn1 [Example 174]                   nM             2.1
3  CC1(CO)CCN(c2cc(Nc3ccnc(-c4cnn(S(=O)(=O)C5CC5)c4)n3)ncc2C#CC2(O)CCOCC2)CC1 [Example 195]                   nM             0.4
4  O=S(=O)(C1CC1)n1cc(-c2nccc(Nc3cc(N[C@H]4CC[C@@H](O)CC4)c(C#Cc4cnn(CCF)c4)cn3)n2)cn1 [Example 42]                   nM             1.2
5  CN1CCC2(CC1)CCN(c1cc(Nc3ccnc(-c4cnn(S(=O)(=O)C5CC5)c4)n3)ncc1C#Cc1cnn(C)c1)CC2 [Example 318]                   nM             0.4

Exam item: Input CC1(CO)CCN(c2cc(Nc3ccnc(-c4cnn(S(=O)(=O)C5CC5)c4)n3)ncc2C#Cc2ncc(CN3CCOCC3)cn2)CC1 [Example 193] , output reported IC50.
Marked response: 0.5

---

SYSTEM: EGFR L858R/C797S (Homo sapiens, UniProt P00533, C797S/L858R)
Sequence (P00533 25-1210 C797S/L858R): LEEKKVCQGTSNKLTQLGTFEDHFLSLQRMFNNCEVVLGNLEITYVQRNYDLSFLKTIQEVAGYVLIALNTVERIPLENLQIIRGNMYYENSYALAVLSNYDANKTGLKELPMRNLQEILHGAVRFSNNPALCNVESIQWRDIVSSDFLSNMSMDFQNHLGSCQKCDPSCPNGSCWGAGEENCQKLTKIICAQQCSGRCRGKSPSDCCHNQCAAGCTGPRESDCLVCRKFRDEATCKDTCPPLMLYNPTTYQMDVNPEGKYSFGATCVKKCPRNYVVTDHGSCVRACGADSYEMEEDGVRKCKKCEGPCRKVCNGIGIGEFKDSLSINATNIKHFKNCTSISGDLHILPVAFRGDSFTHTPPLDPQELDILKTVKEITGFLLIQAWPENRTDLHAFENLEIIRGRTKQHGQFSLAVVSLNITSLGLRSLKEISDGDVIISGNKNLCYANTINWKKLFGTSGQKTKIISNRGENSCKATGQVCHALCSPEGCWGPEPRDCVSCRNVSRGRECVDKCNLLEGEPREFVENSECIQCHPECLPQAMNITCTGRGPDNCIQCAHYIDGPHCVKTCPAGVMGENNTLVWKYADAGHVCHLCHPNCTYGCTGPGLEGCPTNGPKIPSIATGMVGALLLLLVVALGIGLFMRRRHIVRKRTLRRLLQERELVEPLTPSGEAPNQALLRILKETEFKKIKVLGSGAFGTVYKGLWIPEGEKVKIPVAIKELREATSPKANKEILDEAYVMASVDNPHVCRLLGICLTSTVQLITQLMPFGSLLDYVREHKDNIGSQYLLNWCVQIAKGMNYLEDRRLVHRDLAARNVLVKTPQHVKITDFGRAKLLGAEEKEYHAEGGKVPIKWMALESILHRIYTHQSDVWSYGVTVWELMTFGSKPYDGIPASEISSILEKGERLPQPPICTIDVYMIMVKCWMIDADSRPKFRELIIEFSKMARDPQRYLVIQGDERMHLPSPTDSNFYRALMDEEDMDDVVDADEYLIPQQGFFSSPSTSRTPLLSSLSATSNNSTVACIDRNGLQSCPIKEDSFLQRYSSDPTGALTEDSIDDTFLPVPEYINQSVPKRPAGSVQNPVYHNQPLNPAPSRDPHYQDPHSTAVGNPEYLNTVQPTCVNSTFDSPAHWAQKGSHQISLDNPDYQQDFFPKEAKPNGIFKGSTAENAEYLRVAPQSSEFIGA
PROCEDURE_SUMMARY: Biochemical EGFR kinase inhibition assay (Lance Ultra TR-FRET), double mutant L858R/C797S
RUN_PARAMETERS: Km ATP; read-out: IC50 L858R/C797S (nM), Km ATP
MEASURED_PROPERTY: IC50 (nM)
Give the quantity in nM, number only.

The examples below pair each entry with its known result.
> print(dat)
                                   molecule  unit.of.measurement  numeric.result
1  CC1(CO)CCN(c2cc(Nc3ccnc(-c4cnn(S(=O)(=O)C5CC5)c4)n3)ncc2C#CC2(O)CCC2)CC1                   nM            12.8
2  CC1(O)CCN(c2cc(Nc3ccnc(-c4cnn(S(=O)(=O)C5CC5)c4)n3)ncc2C#CC2CCO[C@H]2C(F)(F)F)CC1 (stereo partly drawn)                   nM            30.7

Now turn to the next molecule.
Exam item: Input O=S(=O)(C1CC1)N1CCC(C#Cc2cnc(Nc3ccnc(-c4cnn(S(=O)(=O)C5CC5)c4)n3)cc2NC2CCC(O)CC2)C1 (stereo not drawn) , output reported IC50.
Marked response: 4.3

---

SYSTEM: EGFR Del19/T790M/C797S (Homo sapiens, UniProt P00533, C797S/DEL746-750/T790M)
PROCEDURE_SUMMARY: Biochemical EGFR kinase inhibition assay (Lance Ultra TR-FRET), triple mutant del19/T790M/C797S
RUN_PARAMETERS: ATP at Km; read-out: IC50 Del19/T790M/C797S (nM), Km ATP
Method: Biochemical EGFR kinase assays were conducted using Lance Ultra time-resolved fluorescence resonance energy transfer (TR-FRET) technology from Perkin-Elmer. […] Each kinase reactions were incubated at room temperature for 1 hour and then stopped by the addition of 4 μL of stop solution (10 mM EDTA). […] After 60 minutes incubation at room temperature the LANCE signal was measured on an EnVision Multilabel Reader (Perkin-Elmer). […]
Reported IC50 maps to class as: lower range (below 0.7 nM), middle range (0.7 nM to below 6 nM), upper range (6 nM or more)

Answered examples (3):
> print(dat)
                                   compound                                    system          cat
1  CC(C)(O)C1CCN(c2cc(Nc3ccnc(-c4cnn(S(=O)(=O)C5CC5)c4)n3)ncc2C#Cc2cnn(C(F)(F)F)c2)CC1  EGFR Del19/T790M/C797S (Homo sapiens, UniProt P00533, C797S/DEL746-750/T790M)  upper range
2  CN1CCC(C#Cc2cnc(Nc3ccnc(-c4cnn(S(=O)(=O)C5CC5)c4)n3)cc2N2CCC(C)(CO)CC2)C1 (stereo not shown)  EGFR Del19/T790M/C797S (Homo sapiens, UniProt P00533, C797S/DEL746-750/T790M)  lower range
3  O=S(=O)(C1CC1)n1cc(-c2nccc(Nc3cc(N[C@H]4CC[C@@H](O)CC4)c(C#Cc4ccc(CN5CCOCC5)cn4)cn3)n2)cn1  EGFR Del19/T790M/C797S (Homo sapiens, UniProt P00533, C797S/DEL746-750/T790M)  lower range

Exam item: For this compound, which bin applies? CN(C)S(=O)(=O)n1cc(-c2nccc(Nc3cc(N4CCC(C)(CO)CC4)c(C#Cc4cnn(C(F)(F)F)c4)cn3)n2)cn1
Marked response: middle range

Exam item: For this compound, which bin applies? O=S(=O)(C1CC1)n1cc(-c2nccc(Nc3cc(N[C@H]4CC[C@@H](O)CC4)c(C#Cc4ccc(CN5CCOCC5)cc4)cn3)n2)cn1
Marked response: middle range

Exam item: For this compound, which bin applies? Cn1cc(C#Cc2cnc(Nc3ccnc(-c4cnn(S(=O)(=O)C5CC5)c4)n3)cc2N2CCC3(CCNCC3)C2)cn1
Marked response: lower range

Exam item: For this compound, which bin applies? CC(O)C1CCN(c2cc(Nc3ccnc(-c4cnn(S(=O)(=O)C5CC5)c4)n3)ncc2C#Cc2cnn(C(F)(F)F)c2)CC1 (stereo not shown)
Marked response: middle range

Exam item: For this compound, which bin applies? O=S(=O)(C1CC1)n1cc(-c2nccc(Nc3cc(N[C@@H]4CCC[C@H](O)C4)c(C#Cc4ccc(CN5CCOCC5)cc4)cn3)n2)cn1
Marked response: middle range

Exam item: For this compound, which bin applies? CC(C)Nc1cc(Nc2ccnc(-c3cnn(S(=O)(=O)C4CC4)c3)n2)ncc1C#Cc1csc(CF)n1
Marked response: upper range

Exam item: For this compound, which bin applies? CC1(CO)CCN(c2cc(Nc3ccnc(-c4cnn(S(=O)(=O)C5CC5)c4)n3)ncc2C#Cc2cnn(CC3COCCO3)c2)CC1 (stereo not shown)
Marked response: middle range

Exam item: For this compound, which bin applies? CC1(CO)CCN(c2cc(Nc3ccnc(-c4cnn(S(=O)(=O)C5CC5)c4)n3)ncc2C#C[Si](C)(C)C)CC1
Marked response: upper range

Exam item: For this compound, which bin applies? CC1(CO)CCN(c2cc(Nc3ccnc(-c4cnn(S(=O)(=O)C5CC5)c4)n3)ncc2C#CCCF)CC1
Marked response: lower range
